# key: entry, value: viability, T/C
# System: 138582-337-R-J1-PDC spheroids with HUVEC/MSC, viability;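 note: spheroids exposed to compounds for seven days; 100% = DMSO vehicle control viability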
# procedureText: Anticancer human tumor 138582-337-R-J1-PDC patient-derived Merkel cell tumor cell line growth inhibition [IpAb]
# conditionLabel: second compound 0.1 µM; first compound 10 µM; hits give low values
measurementLabel: viability, T/C (%)

{"molecule": "C=CC(=O)N1CCN(c2nc(=O)n(-c3c(C)ccnc3C(C)C)c3nc(-c4c(O)cccc4F)c(F)cc23)C(C)C1 (stereo not given) + CC(C)NCC(C(=O)N1CCN(c2ncnc3c2C(C)CC3O)CC1)c1ccc(Cl)cc1", "targetOrTestSystem": "138582-337-R-J1-PDC spheroids with HUVEC/MSC, viability", "unitSpec": "%", "observedResult": 168}
{"molecule": "Cc1nc(NC(=O)N2CCCC2C(N)=O)sc1-c1ccnc(C(C)(C)C(F)(F)F)c1 (stereo not given) + CC(C)NCC(C(=O)N1CCN(c2ncnc3c2C(C)CC3O)CC1)c1ccc(Cl)cc1", "targetOrTestSystem": "138582-337-R-J1-PDC spheroids with HUVEC/MSC, viability", "unitSpec": "%", "observedResult": 22.7}
{"molecule": "CC1(C)CCC(CN2CCN(c3ccc(C(=O)NS(=O)(=O)c4ccc(NCC5CCOCC5)c([N+](=O)[O-])c4)c(Oc4cnc5[nH]ccc5c4)c3)CC2)=C(c2ccc(Cl)cc2)C1 + CC(C)NCC(C(=O)N1CCN(c2ncnc3c2C(C)CC3O)CC1)c1ccc(Cl)cc1", "targetOrTestSystem": "138582-337-R-J1-PDC spheroids with HUVEC/MSC, viability", "unitSpec": "%", "observedResult": 76.6}
{"molecule": "C=CC(=O)N1CCN(c2nc(=O)n(-c3c(C)ccnc3C(C)C)c3nc(-c4c(O)cccc4F)c(F)cc23)C(C)C1 (stereo not given) + CCN1CCN(Cc2ccc(Nc3ncc(F)c(-c4cc(F)c5nc(C)n(C(C)C)c5c4)n3)nc2)CC1", "targetOrTestSystem": "138582-337-R-J1-PDC spheroids with HUVEC/MSC, viability", "unitSpec": "%", "observedResult": 218}
{"molecule": "C=CCn1c(=O)c2cnc(Nc3ccc(N4CCN(C)CC4)cc3)nc2n1-c1cccc(C(C)(C)O)n1 + CCN1CCN(Cc2ccc(Nc3ncc(F)c(-c4cc(F)c5nc(C)n(C(C)C)c5c4)n3)nc2)CC1", "targetOrTestSystem": "138582-337-R-J1-PDC spheroids with HUVEC/MSC, viability", "unitSpec": "%", "observedResult": 141}
{"molecule": "Cc1nc(NC(=O)N2CCCC2C(N)=O)sc1-c1ccnc(C(C)(C)C(F)(F)F)c1 (stereo not given) + CCN1CCN(Cc2ccc(Nc3ncc(F)c(-c4cc(F)c5nc(C)n(C(C)C)c5c4)n3)nc2)CC1", "targetOrTestSystem": "138582-337-R-J1-PDC spheroids with HUVEC/MSC, viability", "unitSpec": "%", "observedResult": 9.25}
{"molecule": "Cn1nccc1Nc1nccc(-c2ccn(C(CO)c3ccc(Cl)c(F)c3)c(=O)c2)n1 (stereo not given) + CCN1CCN(Cc2ccc(Nc3ncc(F)c(-c4cc(F)c5nc(C)n(C(C)C)c5c4)n3)nc2)CC1", "targetOrTestSystem": "138582-337-R-J1-PDC spheroids with HUVEC/MSC, viability", "unitSpec": "%", "observedResult": 134}
{"molecule": "CC1(C)CCC(CN2CCN(c3ccc(C(=O)NS(=O)(=O)c4ccc(NCC5CCOCC5)c([N+](=O)[O-])c4)c(Oc4cnc5[nH]ccc5c4)c3)CC2)=C(c2ccc(Cl)cc2)C1 + CCN1CCN(Cc2ccc(Nc3ncc(F)c(-c4cc(F)c5nc(C)n(C(C)C)c5c4)n3)nc2)CC1", "targetOrTestSystem": "138582-337-R-J1-PDC spheroids with HUVEC/MSC, viability", "unitSpec": "%", "observedResult": 89.5}
{"molecule": "Cn1ncc(Cl)c1-c1cc(C(=O)NC(CN)Cc2cccc(F)c2)sc1Cl (stereo not given) + CCN1CCN(Cc2ccc(Nc3ncc(F)c(-c4cc(F)c5nc(C)n(C(C)C)c5c4)n3)nc2)CC1", "targetOrTestSystem": "138582-337-R-J1-PDC spheroids with HUVEC/MSC, viability", "unitSpec": "%", "observedResult": 0.17}
{"molecule": "CCCS(=O)(=O)Nc1ccc(F)c(C(=O)c2c[nH]c3ncc(-c4ccc(Cl)cc4)cc23)c1F + CC(C)NCC(C(=O)N1CCN(c2ncnc3c2C(C)CC3O)CC1)c1ccc(Cl)cc1", "targetOrTestSystem": "138582-337-R-J1-PDC spheroids with HUVEC/MSC, viability", "unitSpec": "%", "observedResult": 68.2}
